system: NCI/ADR-RES ovarian; test: NCI tumour cell line growth inhibition, 48 h
readoutName: TGI

TGI for COc1ccc(C(OC(=O)[C@H](O[Si](C)(C)C(C)(C)C)[C@@H](NC(=O)c2ccccc2)c2ccccc2)c2ccc(OC)cc2)cc1 is > 100 µM

// TGI value for O=C(Nc1ccn(C2CC(I)C(COC(c3ccccc3)(c3ccccc3)c3ccccc3)O2)c(=O)n1)c1ccccc1 (centres undefined) : 20.2 µM

For CCN(CC)C(=S)/N=C(\SC(=S)N(CC)CC)c1ccccc1 the compound record lists TGI as > 100 µM

The value of TGI measured for the compound Cc1cc2c(C(=O)NCC#N)cccc2n1-c1nc2c(c(NCc3ccccc3)n1)CCCC2 turned out to be 3.03 µM

Given item CCOC(=O)Nc1ccc2nc(N3CCCCCC3)sc2c1 , the value recorded as its TGI is > 36.6 µM

The value of TGI measured for the compound O=c1oc2ccc3ccccc3c2cc1-c1nc(-c2ccc([N+](=O)[O-])cc2)n[nH]1 turned out to be > 100 µM

Lab note: measured TGI of O=C1C=CC(=O)c2c(O)c(NCCO)c(Cl)c(O)c21 was > 10 µM

The recorded TGI for CCOC(=O)NC(Nc1ccc(S(=O)(=O)Nc2ccc(OC)nn2)cc1)(C(F)(F)F)C(F)(F)F is 59.9 µM

For this compound ( CCC(CC)c1cc(N[C@H]2CC[C@H](N)C2)n2nccc2n1 ), measured TGI is > 100 µM

---

tested on: MOLT-4 leukemia; assay: NCI tumour cell line growth inhibition, 48 h
Please provide measured TGI for the entries that follow.

Measured TGI (MOLT-4 leukemia), entry O=C[C@]12CC=C3OC4OC5(CCCCC5)OC4[C@H]3[C@H]1C(=O)C=CC2=O (some centres undefined) : 15.3 µM

Entry C[C@@H](Oc1ccc(Oc2cnc3ccc(Cl)cc3n2)cc1)C(=O)O ; assay system MOLT-4 leukemia; TGI recorded at > 100 µM

Entry CCOC(=O)c1cc(C2=CCNC2=O)c(-c2cc(C)no2)[nH]1 : TGI on MOLT-4 leukemia = > 100 µM

// assay MOLT-4 leukemia, entry CN1C(c2ccccc2)CC(C)(O)CC1c1ccccc1 (centres undefined) , TGI value = > 100 µM

Recorded TGI for O=C(COc1cccc(/C=C2\COc3ccccc3C2=O)c1)c1ccccc1 on MOLT-4 leukemia was 11.1 µM

# value of TGI, MOLT-4 leukemia, item CC(=O)c1cc(CC2Cc3cc4c(cc3C2=O)CCC4)cc2c1CCC2 (centres undefined) = 90.5 µM

The observed TGI for O=C(/C=C/c1ccco1)Nc1ncc(Cc2cccc(C(F)(F)F)c2)s1 when tested with MOLT-4 leukemia stands at 26 µM

Response field TGI (MOLT-4 leukemia) for item CCOC(=O)C1=C(C)NC(C)=C(C(=O)OCCNC(=O)c2ccc(N=[N+]=[N-])cc2)C1c1ccccc1C(F)(F)F (centres undefined) : 13.5 µM

TGI for MOLT-4 leukemia with input Cc1cc(N(CCC#N)CCC#N)ccc1/C=C1N=C(/C=C/c2ccccc2)N(c2ccc(S(N)(=O)=O)cc2)C\1=O equals > 100 µM

Record O=C(O)C1CC(C2CCCCN2)CN2CCCCC12 (centres undefined) has MOLT-4 leukemia TGI equal to > 100 µM

Record COC1=CC(=O)c2c(c(COC(C)=O)cn2C)C1=O / MOLT-4 leukemia, TGI recorded as 0.653 µM

Measured on MOLT-4 leukemia, CC(=O)NC(CS)C(=O)O (centres undefined) has a documented TGI of > 100 µM

With MOLT-4 leukemia as the test system, O=C(CN(Cc1ccccc1)Cc1ccccc1)N1CCc2c([nH]c3ccccc23)C1c1cccnc1 (centres undefined) showed TGI of 6.88 µM

Record for CC1(c2nc3ccccc3[nH]2)CCC(C#N)C(C)(C)O1 (centres undefined) under target or system MOLT-4 leukemia: TGI reported as > 100 µM

Record COc1cc(-c2cc(-c3cccs3)c(C#N)c(N3CCOCC3)n2)cc(OC)c1OC has MOLT-4 leukemia TGI equal to > 100 µM

Measured TGI (MOLT-4 leukemia), entry CN1C(=O)/C(=C2\S/C(=N\c3nnc(-c4ccccc4)o3)NC2=O)c2ccccc21 : > 100 µM

Item C=C[C@]1(C)CC(=O)C(C(C)C=O)[C@]12C(=O)Oc1cccc(C)c1C2=O (some centres undefined) was tested on MOLT-4 leukemia; the reported TGI is > 100 µM

MOLT-4 leukemia assay, compound CC1OC(OC2C(OC(=O)[C@]34CCC(C)(C)CC3C3=CCC5[C@@]6(C)C[C@H](O)[C@H](OC7OC(COC8OC(CO)C(O)C(O)C8O)C(O)C(O)C7O)[C@@](C)(C(=O)O)C6CC[C@@]5(C)C3(C)CC4)OCC(O)C2O)C(O)C(O)C1OC1OCC(O)C(O)C1O (some centres undefined) , recorded TGI = > 100 µM

# COc1ccc2nc3cc([N+](=O)[O-])ccc3c(NNc3ccc([N+](=O)[O-])cc3)c2c1 with MOLT-4 leukemia: TGI is > 100 µM

Data origin, for the record: PubChem BioAssay (NCI)
